read-out: CFLAR gene, CFLAR (gene 8837); test: LTEA_HepaRG_CFLAR: Life Technologies and Expression Analysis (LTEA) Assay for CFLAR gene using HepaRG (AID 2283455); settings: mRNA level, 48 h; actives raise or lower the signal
Activity calls are given as the source filed them. Rule for the calls: active = hit-call score of the fitted dose curve at least 0.9, where 1 is the maximum; inactive = score below 0.9.
# output must be one of 1.0 for active, 0.0 for inactive

Below are worked cases with known answers.
{"Compound": "Cc1cc(F)ccc1-c1cc(N2CC[C@@H](O)[C@H]2CO)ncc1N(C)C(=O)C(C)(C)c1cc(C(F)(F)F)cc(C(F)(F)F)c1", "Assigned Category": 1.0}
{"Compound": "CCN(Cc1cccc(S(=O)(=O)O)c1)c1ccc(C(=C2C=CC(=[N+](CC)Cc3cccc(S(=O)(=O)O)c3)C=C2)c2ccccc2S(=O)(=O)[O-])cc1", "Assigned Category": 0.0}
{"Compound": "CC[C@@H]1C[C@H](N(Cc2cc(C(F)(F)F)cc(C(F)(F)F)c2)C(C)=O)c2cc(C(F)(F)F)ccc2N1C(=O)OC(C)C", "Assigned Category": 0.0}
{"Compound": "O=C(O)c1ccccc1C(=O)OCc1ccccc1", "Assigned Category": 0.0}

Can you look up the reported call for CN(C[C@@H](CC[N+]12CCC(C3CCCCC3)(CC1)CC2)c1ccc(Cl)c(Cl)c1)C(=O)c1cc(C(F)(F)F)cc(C(F)(F)F)c1 for me?
1.0

Can you look up the reported call for Clc1ccccc1C(c1ccccc1)(c1ccccc1)n1ccnc1 for me?
0.0

Can you look up the reported call for Cc1cc2c(cc1C(F)(F)F)N(C(=O)Nc1ccc(Oc3cccnc3C)nc1)CC2 for me?
1.0

Can you look up the reported call for NCc1cccc(C2CCN(C(=O)c3ccc(C#Cc4ccccc4F)o3)CC2)c1 for me?
1.0

Can you look up the reported call for CO[C@H]1/C=C/O[C@@]2(C)Oc3c(C)c(O)c4c(O)c(c(/C=N/N5CCN(C)CC5)c(O)c4c3C2=O)NC(=O)/C(C)=C\C=C\[C@H](C)[C@H](O)[C@@H](C)[C@@H](O)[C@@H](C)[C@H](OC(C)=O)[C@@H]1C for me?
0.0

Can you look up the reported call for CCCCCCCCCCCO for me?
0.0

Can you look up the reported call for O=C=NCCCCCCN=C=O for me?
0.0

Can you look up the reported call for CCCCCCCCOC(=O)c1cc(O)c(O)c(O)c1 for me?
0.0

Can you look up the reported call for CC/C(=C(/CC)c1ccc(O)cc1)c1ccc(O)cc1 for me?
1.0
